Origin of the recorded values: patent US12509460B2

system: MDR1 (P-gp); test: Blood-brain-barrier (BBB) penetration potential via MDCK-MDR1 permeability assay; settings: dog, MDCK-MDR1, pH 7.4, MDCK-MDR1: Papp A-B, A-B
Papp A→B at 120 min, 5 μM vs 4 ×10⁻⁶ cm/s: less than gives Condition met; not less than gives Condition not met.

See these solved cases before continuing.
Strictly below 4 ×10⁻⁶ cm/s: is that where Papp A→B at 120 min, 5 μM of CN(c1ccc(-c2cc3c(=O)n(C)ccc3cc2O)nn1)[C@H]1C[C@@H]2CC[C@H]([C@H]1F)N2C [Compound 98B] sits?
Condition not met

Param item: CN(c1ccc(-c2cc3oc(C(=O)N4CCC4)cc3cc2O)nn1)[C@@H]1C[C@H]2CC[C@H](N2)[C@@H]1F [Compound 112A]
Condition met

Moving on to the next compound: Cc1nc2cc(-c3ccc(N(C)[C@@H]4C[C@H]5CC[C@H](N5)[C@@H]4F)nn3)c(O)cc2c(=O)n1C [Compound 114A]
Condition met

Further cases:
Below 4 ×10⁻⁶ cm/s on Papp A→B at 120 min, 5 μM? Entry Cc1nc2cc(O)c(-c3ccc(N(C)[C@H]4C[C@@H]5CC[C@@H](N5)[C@H]4F)nn3)cc2s1 [Compound 116B]
Condition not met

Check CN(c1ccc(-c2cc3cnccc3cc2O)nn1)[C@H]1C[C@@H]2CCC[C@@H](N2)[C@H]1F [Compound 121B] too.
Condition not met
